Numbers sourced from ChEMBL document CHEMBL5532666.

target: Serine/threonine-protein kinase 24 (Homo sapiens, UniProt Q9Y6E0); details: dose 10.0 µM
Sequence (Q9Y6E0 whole entry, looked up): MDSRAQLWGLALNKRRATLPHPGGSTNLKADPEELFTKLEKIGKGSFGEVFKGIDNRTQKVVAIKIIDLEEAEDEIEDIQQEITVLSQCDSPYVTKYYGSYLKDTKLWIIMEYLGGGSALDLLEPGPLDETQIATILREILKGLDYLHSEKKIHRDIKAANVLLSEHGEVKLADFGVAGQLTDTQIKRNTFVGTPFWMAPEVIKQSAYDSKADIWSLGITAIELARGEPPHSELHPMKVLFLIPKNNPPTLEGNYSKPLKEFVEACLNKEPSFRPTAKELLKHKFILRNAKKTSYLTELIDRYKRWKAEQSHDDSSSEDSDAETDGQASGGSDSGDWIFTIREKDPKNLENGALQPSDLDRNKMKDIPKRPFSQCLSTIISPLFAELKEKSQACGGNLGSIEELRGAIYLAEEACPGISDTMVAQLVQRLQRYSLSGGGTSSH
Description: Binding affinity to recombinant MST3 (unknown origin) kinase domain assessed as thermal stabilization by measuring change in melting temperature at 10 uM by DSF analysis
Attribute measured: ΔTm (°C)

Cc1cnc2nc1Nc1cc([nH]n1)C(=O)NCCc1ccc(cc1)N2 | 0.5

1: O=C1NCCCCCNc2ncc(Cl)c(n2)Nc2cc1[nH]n2
2: O=C1NCCOCCNc2ncc(Cl)c(n2)Nc2cc1[nH]n2
3: O=C1NCCc2cccc(c2)Nc2nc(c3ccccc3n2)Nc2cc1[nH]n2
Qu. Order the entries by their reported ΔTm, beginning at the minimum. Please list the labels in the order you were asked to rank them.
Ans. 2, 1, 3

====

Biological target: Serine/threonine-protein kinase 4 (Homo sapiens)
Sequence (whole entry): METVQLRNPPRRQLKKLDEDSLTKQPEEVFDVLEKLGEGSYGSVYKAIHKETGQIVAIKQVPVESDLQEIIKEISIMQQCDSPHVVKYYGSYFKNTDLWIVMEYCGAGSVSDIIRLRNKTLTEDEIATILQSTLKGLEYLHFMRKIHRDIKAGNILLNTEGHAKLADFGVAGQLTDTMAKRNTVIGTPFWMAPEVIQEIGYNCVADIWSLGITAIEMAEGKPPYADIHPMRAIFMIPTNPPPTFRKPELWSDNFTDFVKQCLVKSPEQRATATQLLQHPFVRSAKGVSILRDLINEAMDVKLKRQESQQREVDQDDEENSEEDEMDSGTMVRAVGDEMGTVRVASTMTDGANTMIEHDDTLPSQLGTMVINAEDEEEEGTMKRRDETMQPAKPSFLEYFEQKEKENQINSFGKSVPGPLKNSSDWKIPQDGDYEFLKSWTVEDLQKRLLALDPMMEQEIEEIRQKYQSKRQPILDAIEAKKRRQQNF
Details: dose 10.0 µM
Description: Binding affinity to recombinant MST1 (unknown origin) kinase domain assessed as thermal stabilization by measuring change in melting temperature at 10 uM by DSF analysis
Attribute measured: ΔTm (°C)

Cc1cnc2nc1Nc1cc([nH]n1)C(=O)NCCc1ccc(cc1)N2 | 1
O=C1NCCc2ccc(cc2)Nc2nc(c3ccccc3n2)Nc2cc1[nH]n2 | 1

a: O=C1NCCOCCNc2nc(c3ccccc3n2)Nc2cc1[nH]n2
b: O=C1NCCCCCCNc2ncc(Cl)c(n2)Nc2cc1[nH]n2
Qu. Thinking about recorded ΔTm values, which is higher, a or b ? Your answer should be the label attached to the chosen record.
Ans. b
(b: 1.5 °C, a: 0.6 °C)

A: O=C1NCCOCCNc2ncc(Cl)c(n2)Nc2cc1[nH]n2
B: O=C1NCCCCCNc2ncc(Cl)c(n2)Nc2cc1[nH]n2
Qu. Decide: A or B , by lowest recorded ΔTm. Identify your pick by its label.
Ans. A
(A: 1.1 °C, B: 2.5 °C)

I: O=C1NCCc2cccc(c2)Nc2nc(c3ccccc3n2)Nc2cc1[nH]n2
II: O=C1NCCc2cccc(c2)Nc2ncc(Cl)c(n2)Nc2cc1[nH]n2
III: O=C1NCCc2ccc(cc2)Nc2ncc(Cl)c(n2)Nc2cc1[nH]n2
Qu. Put the entries in order of ΔTm, starting with the largest number. Form entry: ranked labels (order as requested).
Ans. I, II, III
(I: 1.7 °C, II: 0.8 °C, III: 0.3 °C)

====

target: Serine/threonine-protein kinase 26 (Homo sapiens); details: dose 10.0 µM
Sequence (Q9P289 2-416 limits assumed): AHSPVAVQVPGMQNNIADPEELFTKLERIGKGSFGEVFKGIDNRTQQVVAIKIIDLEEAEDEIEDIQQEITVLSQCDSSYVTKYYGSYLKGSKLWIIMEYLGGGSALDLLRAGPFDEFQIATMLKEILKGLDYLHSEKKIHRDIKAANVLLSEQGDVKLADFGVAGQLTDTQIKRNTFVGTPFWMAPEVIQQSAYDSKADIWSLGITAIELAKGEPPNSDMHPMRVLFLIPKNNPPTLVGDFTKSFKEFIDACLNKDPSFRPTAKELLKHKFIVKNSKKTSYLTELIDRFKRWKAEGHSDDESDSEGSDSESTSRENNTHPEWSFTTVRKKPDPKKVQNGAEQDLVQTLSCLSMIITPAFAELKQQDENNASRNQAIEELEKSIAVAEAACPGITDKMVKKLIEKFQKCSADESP
Description: Binding affinity to recombinant MST4 (unknown origin) kinase domain assessed as thermal stabilization by measuring change in melting temperature at 10 uM by DSF analysis
Attribute measured: ΔTm (°C)

Examples with their reported ΔTm follow.
O=C1NCCCCCCNc2nc(c3ccccc3n2)Nc2cc1[nH]n2 | 4
O=C1NCCc2ccc(cc2)Nc2ncc(Cl)c(n2)Nc2cc1[nH]n2 | 0.7
O=C1NCCc2cccc(c2)Nc2nc(c3ccccc3n2)Nc2cc1[nH]n2 | 4
Cc1cnc2nc1Nc1cc([nH]n1)C(=O)NCCc1ccc(cc1)N2 | 2.3

1: O=C1NCCOCCNc2ncc(Cl)c(n2)Nc2cc1[nH]n2
2: O=C1NCCc2ccc(cc2)Nc2nc(c3ccccc3n2)Nc2cc1[nH]n2
Qu. Lab note: check whether 1 or 2 has the lower measured ΔTm. Lab log: write the label of the selected item as the result.
Ans. 1
(1: 2.8 °C, 2: 4.7 °C)

====

Biological target: Serine/threonine-protein kinase 3 (Homo sapiens) (UniProt Q13188)
Sequence (whole entry): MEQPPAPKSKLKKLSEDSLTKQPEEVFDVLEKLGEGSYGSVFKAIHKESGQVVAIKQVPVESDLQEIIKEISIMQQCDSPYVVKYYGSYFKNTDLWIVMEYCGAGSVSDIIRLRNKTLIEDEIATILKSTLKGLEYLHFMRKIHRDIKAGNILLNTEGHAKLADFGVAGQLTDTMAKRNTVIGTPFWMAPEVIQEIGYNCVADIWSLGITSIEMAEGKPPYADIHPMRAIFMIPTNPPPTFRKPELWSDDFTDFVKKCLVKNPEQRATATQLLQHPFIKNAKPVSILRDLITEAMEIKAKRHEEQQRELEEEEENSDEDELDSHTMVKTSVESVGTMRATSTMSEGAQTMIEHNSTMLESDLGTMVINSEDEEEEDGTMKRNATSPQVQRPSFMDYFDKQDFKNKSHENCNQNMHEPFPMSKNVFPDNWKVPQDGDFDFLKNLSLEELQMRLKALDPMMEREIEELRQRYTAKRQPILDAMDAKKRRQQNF
Conditions: dose 10.0 µM
Description: Binding affinity to recombinant MST2 (unknown origin) kinase domain assessed as thermal stabilization by measuring change in melting temperature at 10 uM by DSF analysis
Attribute measured: ΔTm (°C)

A selection of reference data follows.
O=C1NCCc2ccc(cc2)Nc2ncc(Cl)c(n2)Nc2cc1[nH]n2 | 0.7
O=C1NCCc2ccc(cc2)Nc2nc(c3ccccc3n2)Nc2cc1[nH]n2 | 2.3
O=C1NCCCCCCNc2ncc(Cl)c(n2)Nc2cc1[nH]n2 | 1

P: O=C1NCCc2cccc(c2)Nc2nc(c3ccccc3n2)Nc2cc1[nH]n2
Q: O=C1NCCCCCNc2ncc(Cl)c(n2)Nc2cc1[nH]n2
Qu. Compare ΔTm: is it lower for P or for Q ? Reply briefly: the label of your chosen item.
Ans. P

====

target: Serine/threonine-protein kinase 24 (Homo sapiens, UniProt Q9Y6E0); conditions: dose 10.0 µM
Attribute measured: ΔTm (°C)

Solved cases (3 shown):
O=C1NCCCCCNc2nc(c3ccccc3n2)Nc2cc1[nH]n2 | 7.5
O=C1NCCc2cccc(c2)Nc2ncc(Cl)c(n2)Nc2cc1[nH]n2 | 2.9
O=C1NCCOCCNc2nc(c3ccccc3n2)Nc2cc1[nH]n2 | 2.5

I: O=C1NCCc2ccc(cc2)Nc2nc(c3ccccc3n2)Nc2cc1[nH]n2
II: O=C1NCCc2ccc(cc2)Nc2ncc(Cl)c(n2)Nc2cc1[nH]n2
III: O=C1NCCCCCCNc2ncc(Cl)c(n2)Nc2cc1[nH]n2
Qu. Ordering criterion: ΔTm; begin with the maximum. Reply with the item labels sorted in the order that was asked for.
Ans. I, II, III
(I: 3.3 °C, II: 1.2 °C, III: 0.3 °C)

====

Molecular target: Serine/threonine-protein kinase 4 (Homo sapiens)
Sequence (Q13043 whole entry): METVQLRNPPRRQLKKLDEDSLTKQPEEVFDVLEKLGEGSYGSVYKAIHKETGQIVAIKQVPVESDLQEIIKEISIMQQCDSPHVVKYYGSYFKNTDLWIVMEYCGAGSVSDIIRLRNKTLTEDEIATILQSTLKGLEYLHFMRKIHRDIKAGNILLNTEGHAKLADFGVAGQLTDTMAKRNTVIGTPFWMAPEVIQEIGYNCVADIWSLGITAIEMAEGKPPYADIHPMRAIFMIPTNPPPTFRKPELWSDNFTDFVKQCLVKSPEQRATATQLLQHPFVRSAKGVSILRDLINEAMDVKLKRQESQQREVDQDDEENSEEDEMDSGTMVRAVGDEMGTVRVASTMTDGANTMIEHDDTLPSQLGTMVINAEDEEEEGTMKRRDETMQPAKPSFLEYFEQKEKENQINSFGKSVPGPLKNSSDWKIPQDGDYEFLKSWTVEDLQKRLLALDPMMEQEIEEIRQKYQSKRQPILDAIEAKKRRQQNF
Assay: Binding affinity to N-terminal full length human MST1 expressed in intact HEK293T cells incubated for 2 hrs by NanoBRET assay
pEC50: −log10 of the molar value.
Attribute measured: pEC50

These recorded examples may help you get a feel for the data.
O=C1NCCCCCNc2ncc(Cl)c(n2)Nc2cc1[nH]n2 | 5.01
O=C1NCCc2ccc(cc2)Nc2ncc(Cl)c(n2)Nc2cc1[nH]n2 | 4.93

I: O=C1NCCc2cccc(c2)Nc2ncc(Cl)c(n2)Nc2cc1[nH]n2
II: O=C1NCCc2ccc(cc2)Nc2nc(c3ccccc3n2)Nc2cc1[nH]n2
III: O=C1NCCc2cccc(c2)Nc2nc(c3ccccc3n2)Nc2cc1[nH]n2
Qu. Number of compounds to sort: 3. Sort criterion: pEC50, ascending. Please list the labels according to the requested order.
Ans. II, III, I
(II: 4.54, III: 4.86, I: 5.11)

====

molecular target: Serine/threonine-protein kinase 26 (Homo sapiens)
Attribute measured: Kd (µM)
Hi! Could you send only the number? It should be in µM, unit omitted.

Qu. Please look up its Kd: O=C1NCCCCCNc2nc(c3ccccc3n2)Nc2cc1[nH]n2
Ans. 0.115

====

molecular target: Serine/threonine-protein kinase 24 (Homo sapiens, UniProt Q9Y6E0); test: Binding affinity to C-terminal full length human MST3 expressed in permeabilized HEK293T cells incubated for 2 hrs by NanoBRET assay; format: cell-based
Sequence (Q9Y6E0 whole entry): as the sequence (Q9Y6E0 whole entry, looked up) above
pEC50: −log10 of the molar value.
Attribute measured: pEC50

O=C1NCCCCCNc2nc(c3ccccc3n2)Nc2cc1[nH]n2 | 7.10

1: O=C1NCCOCCNc2ncc(Cl)c(n2)Nc2cc1[nH]n2
2: O=C1NCCCCCCNc2nc(c3ccccc3n2)Nc2cc1[nH]n2
3: O=C1NCCc2ccc(cc2)Nc2ncc(Cl)c(n2)Nc2cc1[nH]n2
Qu. Hello, I need these entries ordered by pEC50, highest reading first. Thanks! Use the labels to give the requested order.
Ans. 2, 3, 1
